Taken from PubChem BioAssay (Tox21).

Test: qHTS assay to identify small molecule agonists of the farnesoid-X-receptor (FXR) signaling pathway - cell viability counter screen (AID 743218); also: nearly all actives have a fitted effect of over 45% in size
Conditions: FXR-bla HEK293T viability, CellTiter-Glo luminescence, 16 h; series mostly up to 62.6 µM
Records with an inconclusive call do not appear. Calls of active or inactive are those of the source. Calls follow the shape of the dose curve; as a rule, active = well fitted cell-killing curve with a large enough effect in the repeat runs; inconclusive = weak or mixed curves, or effect the other way; inactive = no such curve, though single readings can be large or run the other way.
Pick one and only one: y (active), n (inactive)

Tell me the assay call for C#CCO please. n

Could you kindly confirm the outcome this assay logged for O=S(=O)(NS(=O)(=O)C(F)(F)F)C(F)(F)F ? n

Any idea what this test logged for C[C@@H]1CC2=CC(=O)CC[C@@H]2[C@H]2CC[C@@]3(C)[C@@H](CC[C@]3(C)O)[C@@H]21 ? n

Per the records of this test, what outcome belongs to Oc1ccc(Cl)c(Cl)c1 ? n

Assay outcome for CCCCCON=O : what was it? n

###

Assay: A CellTox Green Cytotoxicity Assay to monitor cytotoxicity in HepG2 cells - 40 hour (AID 1224879); also: nearly all actives have a fitted effect of over 40% in size
Conditions: CellTox Green fluorescence; series mostly up to 76.8 µM
Results filed as inconclusive are left out. Active and inactive are the calls of the source. The call rests on the fitted dose curve; in most records, active means well fitted activation curve with a large enough effect in the repeat runs; inconclusive means weak or mixed curves; inactive means flat fitted curve, though single readings scatter.
# output must be one of active, inactive

Worked set:
>>> discrete_label("CNC(=O)Oc1cc(C)cc(C(C)C)c1")
"inactive"
>>> discrete_label("CCN(CC)CCc1c[nH]c2ccccc12")
"inactive"
>>> discrete_label("CN=C=O")
"inactive"
>>> discrete_label("CN1[C@@H]2CC[C@H]1CC(O)C2 (stereo partly drawn)")
"inactive"

Just curious, what result did [Cl-].[Cl-].[Cl-].[Yb+3] get here? inactive

What outcome does the record of this test show for O=P(Cl)(Cl)Cl ? inactive

Could you check what this test reported for C=CC(=O)[O][Sn]([CH2]CCC)([CH2]CCC)[CH2]CCC ? active

What outcome does the record of this test show for N#CCCl ? inactive

Test call, this compound: Nc1ccccc1-c1ccccc1 inactive

// param item: CSC1=N[C@@](C)(c2ccccc2)C(=O)N1Nc1ccccc1 ; yields the recorded call inactive

Per the records of this test, what outcome belongs to CCCCC(CC)COC(=O)OOC(C)(C)C (stereo not drawn) ? inactive

###

Test: qHTS assay to identify small molecule antagonists of the estrogen receptor alpha (ER-alpha) signaling pathway using the BG1 cell line - cell viability counter screen (AID 743081);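 also: compound given together with 17beta-estradiol as the ER stimulus; nearly all actives have a fitted effect of over 45% in size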
Details: BG1Luc4E2 viability, CellTiter-Fluor, 22 h; series mostly up to 70.3 µM
Records with an inconclusive call do not appear. Calls of active or inactive are those of the source. Calls come from the whole dose curve; as a rule, active = well fitted cell-killing curve with a large enough effect in the repeat runs; inconclusive = weak or mixed curves, or effect the other way; inactive = flat fitted curve, though single readings scatter.
Give your call using only these classes: T for active, F for inactive

Before answering, review these 3 worked examples.
>>> discrete_label("CNC(=O)CSP(=O)(OC)OC")
"F"
>>> discrete_label("CCOC(=O)Cc1ccccc1")
"F"
>>> discrete_label("CC(=O)[O-].CC(=O)[O-].[Co+2]")
"F"

What classification did O=C1C(Cl)=C(Cl)C(=O)C(Cl)=C1Cl end up with in this test? F

Assay result, entry COC(=O)C(C)N(C(=O)c1ccco1)c1c(C)cccc1C (stereo unspecified) — outcome? F

Tell me the assay call for Clc1ccc(C(Cl)(Cl)Cl)cc1Cl please. F

# lookup: test call for CC[C@H](C)[C@H]1O[C@]2(C=C[C@@H]1C)C[C@@H]1C[C@@H](C/C=C(\C)[C@@H](O[C@H]3C[C@H](OC)[C@@H](O[C@H]4C[C@H](OC)[C@@H](NC)[C@H](C)O4)[C@H](C)O3)[C@@H](C)/C=C/C=C3\CO[C@@H]4[C@H](O)C(C)=C[C@@H](C(=O)O1)[C@]34O)O2 T

Kindly provide the recorded test outcome for the following compound: N#Cc1sc2c(=O)c3ccccc3c(=O)c=2sc1C#N T

###

Molecular target: Voltage-gated inwardly rectifying potassium channel KCNH2 (Homo sapiens)
Experiment: Human Ether-a-go-go-Related Gene (hERG) channel small molecule antagonists: fluorescence cell-based qHTS assay (AID 1671200); also: nearly all actives have a fitted effect of over 50% in size
Conditions: hERG-U2OS cells, FluxOR thallium flux fluorescence; series mostly up to 76.8 µM
Excerpt: National Center for Advancing Translational Sciences [NCATS] U.S. Environmental Protection Agency [EPA] National Institutes of Environmental Health Sciences [NIEHS] National Toxicology Program [NTP] U.S. Food and Drug Administration [FDA] Mutations in the hERG channel cause Long QT (LQT) syndrome. LQT syndrome is a cardiac disorder which can cause ventricle arrhythmia and sudden death. Additionally, compounds which block the hERG channel can cause acquired LQT syndrome. […]
Records with an inconclusive call do not appear. Calls of active or inactive are those of the source. Calls follow the shape of the dose curve; as a rule, active = well fitted inhibition curve with a large enough effect in the repeat runs; inconclusive = weak or mixed curves; inactive = flat fitted curve, though single readings scatter.
Would you mind answering with one of these outcomes? active, inactive

The following compounds have reported results that may help.
>>> discrete_label("CC(C)C(Br)C(=O)NC(N)=O (centres undefined)")
"inactive"
>>> discrete_label("c1cc[n+]2c(c1)-c1cccc[n+]1CC2")
"inactive"
>>> discrete_label("CCCCON=O")
"inactive"
>>> discrete_label("CCO/N=C(\\CC)C1=C(O)CC(c2c(C)cc(C)cc2C)CC1=O (centres undefined)")
"inactive"
>>> discrete_label("O=c1c2ccccc2c(=O)c2c1cc(Cl)c1[nH]c3c([nH]c12)c(Cl)cc1c(=O)c2ccccc2c(=O)c13")
"inactive"
>>> discrete_label("S=C=Nc1ccccc1")
"inactive"
>>> discrete_label("CCOP(=S)(NC(C)C)Oc1ccccc1C(=O)OC(C)C (centres undefined)")
"inactive"
>>> discrete_label("O=C(N[C@H]1N=C(c2ccccc2F)c2cccc3c2N(CC3)C1=O)c1cc2ccccc2[nH]1")
"active"
>>> discrete_label("Oc1cc(Cl)c(Cl)c(Cl)c1Cl")
"inactive"
>>> discrete_label("O.O.O.O.O.O.O.O=S(=O)([O-])[O-].[Co+2]")
"inactive"

In this assay, the call recorded for O.O.O.O=C([O-])[C@H]([O-])[C@@H]([O-])C(=O)[O-].O=C([O-])[C@H]([O-])[C@@H]([O-])C(=O)[O-].[K+].[K+].[Sb+3].[Sb+3] was what? inactive

Which outcome was entered for the compound CC(C)=CC1C(C(=O)OC(C#N)c2cccc(Oc3ccccc3)c2)C1(C)C (centres undefined) in this test? inactive

I would be grateful if you could indicate the recorded call for Cc1ccc2cc3c(ccc4ccccc43)c3c2c1CC3 . inactive

How did this test come out for COc1ccc2[nH]cc(CCN(C(C)C)C(C)C)c2c1 ? active

###

Experiment: qHTS assay for small molecule disruptors of the mitochondrial membrane potential (AID 720635)
Conditions: HepG2 mitochondrial membrane potential, Mito-MPS dye ratio; series mostly up to 83.2 µM
From the text: U.S. Tox21 Program National Center for Advancing Translational Sciences [NCATS] NIH Chemical Genomics Center [NCGC] U.S. Environmental Protection Agency [EPA] National Institutes of Environmental Health Sciences [NIEHS] National Toxicology Program [NTP] U.S. Food and Drug Administration [FDA] […] The dye accumulates in the mitochondria of healthy cells as aggregates, with red fluorescence. […]
Inconclusive results are not listed. Activity calls are given as the source filed them. The call rests on the fitted dose curve; in most records, active means well fitted inhibition curve with a large enough effect in the signal ratio in the repeat runs; inconclusive means weak or mixed curves, or effect the other way; inactive means flat fitted curve, though single readings scatter; the % refers to the signal ratio.
Entry note: the call must match one of y for active, n for inactive

>>> discrete_label("CNN")
"n"
>>> discrete_label("COc1cnc(OC)n2nc(NS(=O)(=O)c3c(OCC(F)F)cccc3C(F)(F)F)nc12")
"n"
>>> discrete_label("CC(C)c1c(CN(C)C(C)Cc2ccccc2)n(C)n(-c2ccccc2)c1=O (stereo unspecified)")
"n"
>>> discrete_label("NC1CCC(CC2CCC(N)CC2)CC1 (stereo unspecified)")
"n"
>>> discrete_label("CCC[CH2][Sn]([CH2]CCC)([CH2]CCC)[O][Sn]([CH2]CCC)([CH2]CCC)[CH2]CCC")
"y"

Consider the additional compound presented here.
Tell me the recorded outcome of this test for Cc1ccc2cc3c(ccc4ccccc43)c3c2c1CC3 . y

###

Assay: Caspase-3/7 induction in HepG2 cells by small molecules, qHTS cell viability counter screen (AID 1346981); also: nearly all actives have a fitted effect of over 30% in size
Conditions: CellTiter-Fluor fluorescence, 17 h; series mostly up to 92.4 µM
From the text: U.S. Tox21 Program National Center for Advancing Translational Sciences [NCATS] NIH Chemical Genomics Center [NCGC] U.S. Environmental Protection Agency [EPA] National Institutes of Environmental Health Sciences [NIEHS] National Toxicology Program [NTP] U.S. Food and Drug Administration [FDA] Tox21 Assay Overview: Apoptosis is a process of programmed cell death and plays a central role in the development of multicellular organisms. […]
Inconclusive results are not listed. Calls of active or inactive are those of the source. The call rests on the fitted dose curve; in most records, active means well fitted cell-killing curve with a large enough effect in the repeat runs; inconclusive means weak or mixed curves, or effect the other way; inactive means flat fitted curve, though single readings scatter.
Classes to choose from: TRUE for active, FALSE for inactive

Kindly provide the recorded test outcome for the following compound: O=S1(=O)OCC2C(CO1)C1(Cl)C(Cl)=C(Cl)C2(Cl)C1(Cl)Cl (stereo not drawn) FALSE

Tell me the recorded outcome of this test for CN=C=O . FALSE

So what was the verdict on CCC[CH2][Sn]([CH2]CCC)([O]C(C)=O)[O]C(C)=O in this test? TRUE

Per the assay record, what outcome was assigned to CNC(=O)CSP(=O)(OC)OC ? FALSE

Assay result, entry OCC(Br)CBr (stereo not drawn) — outcome? FALSE

Call for entry O=P(Cl)(Cl)Cl : FALSE

What was the test verdict on CCO/N=C(\CC)C1=C(O)CC(c2c(C)cc(C)cc2C)CC1=O (stereo not drawn) ? FALSE

Assay result, entry CCn1cc[n+](C)c1 (tested in a mixture with another compound) — outcome? FALSE
